assay-details: M. tuberculosis growth inhibition, HTS (AID 1259417);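 further: bacteria grown with compound for 5 days at 37 °C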
measurement-parameters: M. tuberculosis DsRed fluorescence growth inhibition; concentration not given here
The campaign covered roughly 1,100 compounds. About 760 (69%) were called active. How the calls were made is not given here. The set was probably picked from earlier hits. The list shows a part of the results.
The categories you may choose from are label 1 for active, label 0 for inactive

{"columns": ["smiles-code", "qualitative-label"],
 "data": [
  ["CCOC(=O)c1cc(-c2csc(COc3ccc(Cl)cc3)n2)on1", "label 1"]
]}

Attention now shifts to the item below.
Which result was noted for this compound in the test: `O=C(Nc1nnc(-c2ccc(Cl)cc2)o1)c1ccc([N+](=O)[O-])o1`
label 1

----------
assay-details: M. tuberculosis growth inhibition, HTS (AID 1259417);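 further: bacteria grown with compound for 5 days at 37 °C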
measurement-parameters: M. tuberculosis DsRed fluorescence growth inhibition; concentration not given here
In all, about 1,100 compounds went through this assay and about 760 (69%) were called active. The rule behind the calls is not given here. The set was probably picked from earlier hits. The list shows a part of the results.
The reply should name one outcome from T (active), F (inactive)

Consider the worked cases shown below.
{"columns": ["compound", "qualitative-label"],
 "data": [
  ["Cc1cccc(OCc2nnc(SCC(=O)NCCc3ccccc3)o2)c1", "T"],
  ["CC(=O)Nc1nc2ccccc2n1Cc1ccccc1", "T"],
  ["Cc1ccc(NC(=O)C23CC4CCC(CC(C4)C2)C3)cc1", "T"],
  ["CCOC(=O)c1sc(NC(=O)NC2CCCCC2)cc1C", "T"],
  ["CCOC(=O)c1cnc(-n2nc(C)cc2C)nc1NCCc1ccccc1", "T"],
  ["c1ccc(CCN(Cc2ccccc2)C2CCN(Cc3c[nH]c4ccccc34)CC2)cc1", "F"]
]}

What outcome does the record of this test show for Cc1ccc(-c2csc3ncn(C(C)C(=O)OCc4ccccc4Cl)c(=O)c23)cc1 (configuration not stated) ?
F

# fetch the recorded call for Cc1ccc2c(c1)c(-c1ccccc1)c(-c1ccccc1)n2CC(O)CN1CCN(CCO)CC1 (configuration not stated) here
F

What was the test verdict on `CCOC(=O)CSCC(=O)Nc1c(C(=O)C2CC2)oc2ccccc12` ?
T

State the result this test recorded for `CC(C)(C)c1ccc(OCCN2C(=O)C(=O)c3cc(Br)ccc32)cc1` .
F

Status in this test for `CC1=CC(C)(C)Nc2ccc(OC(=O)c3cccnc3)cc21` ?
T

Please indicate how the test categorized `O=C(CC12CC3CC(CC(C3)C1)C2)Nc1cccc(C(F)(F)F)c1` .
T

Per the records of this test, what outcome belongs to `O=C(CC12CC3CC(CC(C3)C1)C2)Nc1ccc2c(c1)OCCO2` ?
T

Hi, sorry to bother you, what did the test record for Cc1cc(C)c2c(c1)c(-c1ccccc1)c(-c1ccccc1)n2CC(O)CN1CCN(CCO)CC1 (configuration not stated) ?
T

Test call, this compound: `CC(C)(C)c1ccc(OCCn2c(N)nc3ccccc32)cc1`
T

Tell me the assay call for O=C(c1ccccc1)c1ccc(OCC(O)Cn2cnc3ccccc32)cc1 (configuration not stated) please.
F

GET /call?item= CCc1nc2ccccc2n1CC(O)COc1ccc(I)cc1 (configuration not stated) returns the recorded outcome of this test.
T

----------
Catalogue of inhibition readings, one per entry.
assay-details: M. tuberculosis growth inhibition, HTS (AID 1259417);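 further: bacteria grown with compound for 5 days at 37 °C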
measurement-parameters: M. tuberculosis DsRed fluorescence growth inhibition; hits give high values; concentration not given here
The campaign covered roughly 1,100 compounds. About 760 (69%) were called active. So high a share suggests a set chosen from earlier hits. This is one part of the list.
Answer in %, number only, no unit symbol.

{"columns": ["compound", "reported"],
 "data": [
  ["Cc1ccc(C(=O)N2CCN(c3ccc(NC(=O)COc4c(C)cc(C)cc4Br)cc3)CC2)cc1", -0.254],
  ["COc1cccc(Nc2nc(-c3ccccn3)cs2)c1", 93.6],
  ["CCCC(=O)Nc1cccc(-c2nc3ccccc3c(=O)o2)c1", 29.1],
  ["CCC(C)NC(=O)c1ccc(NC(=O)C2(c3ccccc3)CCCC2)cc1 (configuration not stated)", 31.9],
  ["CC(=O)c1cccc(Nc2nc(-c3ccccn3)cs2)c1", 70.5],
  ["Oc1cccc2ccc(C=Cc3cccc(F)c3)nc12", 98.8],
  ["NC(CC(=O)c1ccc(Cl)cc1Cl)C(Cl)(Cl)Cl (configuration not stated)", 99.7],
  ["CC(C)(C)c1ccc(C(=O)Nc2nnc(-c3cccnc3)o2)cc1", 83.8],
  ["CC(=O)Oc1cccc2ccc(C=Cc3cccc(Br)c3)nc12", 87.4],
  ["Clc1ccc(OCCCn2ccnc2)cc1Cl", 98.6]
]}

Quick one: give measured inhibition for `Cc1oc2c(c1C(=O)Nc1cccc3ccccc13)CCCC2`
13.4

Fill in reported inhibition for this entry: `Clc1ccc(OCCCCn2ccnc2)cc1Cl`
100
